Measured values drawn from patent US20030144346A1 for this set.

Target: UniProt P18405
Sequence (P18405 1-259): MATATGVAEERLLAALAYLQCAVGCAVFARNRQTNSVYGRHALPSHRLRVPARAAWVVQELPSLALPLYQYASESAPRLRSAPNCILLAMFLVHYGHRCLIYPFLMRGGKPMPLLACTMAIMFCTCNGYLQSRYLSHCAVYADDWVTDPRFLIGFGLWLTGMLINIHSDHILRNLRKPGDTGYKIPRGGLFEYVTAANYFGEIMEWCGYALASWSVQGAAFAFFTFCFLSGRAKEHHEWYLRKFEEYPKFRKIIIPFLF
Experiment: Whole cell assay of 5α-reductase, type 1 isoenzyme;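 also: intact rat 1A cells engineered to express the human type 1 5α-reductase isozyme serve as the enzyme source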
Type: cell-based
Set-up: expressed in transfected cells; host or cells: rat 1A cells infected with pMV7 retrovirus
METRIC_NAME: IC50 (µM)
Give just the numeric value; µM need not be written.

query: Fill in: IC50 of Oc1ccc2c(O)c3ccccc3cc2c1O is ___
result: 6

query: Record request: IC50 value, item Cc1cc2c(C(C)C)c(O)c(O)c(C=O)c2c(O)c1-c1c(C)cc2c(C(C)C)c(O)c(O)c(C=O)c2c1O
result: 7

* * *

Kindly state log10 of IC50 for each of the entries shown.
molecular target: type 1 human 5α-reductase (HRED1) (Homo sapiens); experiment: Cell free assay of 5α-reductase, microsomes of rat 1A cells expressing type 1 isoenzyme (HRED1); format: biochemical; set-up: expressed in transfected cells; host or cells: rat 1A cells infected with pMV7 retrovirus; microsomes; conditions: cell free assay; Table 5 epigallocatechin derivatives; read-out: HRED1 IC50;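 also: microsomes from rat 1A cells expressing human type 1 5α-reductase, conversion of radiolabeled testosterone to dihydrotestosterone quantified by thin layer chromatography with radioanalytic scanning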
Scale type: logarithmic (base 10). Underlying IC50 unit: µM.

query: What value of log10 of IC50 has been recorded for this entry: COc1cc(C(=O)OC2Cc3c(O)cc(O)cc3OC2c2cc(O)c(O)c(O)c2)cc(OC)c1OC (centres unmarked)
result: 2.49

query: Look up log10 of IC50: CN(C)c1ccc(C(=O)OC2Cc3c(O)cc(O)cc3OC2c2cc(O)c(O)c(O)c2)cc1 (centres unmarked)
result: 1.36

query: I would be grateful if you could share the reported log10 of IC50 for O=C(OC1Cc2c(O)cc(O)cc2OC1c1cc(O)c(O)c(O)c1)c1ccncc1 (centres unmarked) .
result: 1.99

query: Which log10 of IC50 is listed for O=C(C=Cc1cc(O)c(O)c(O)c1)OC1Cc2c(O)cc(O)cc2OC1c1cc(O)c(O)c(O)c1 (centres unmarked) ?
result: 1.30

query: What value of log10 of IC50 has been reported for the following molecule? CCCCCC(=O)OC1Cc2c(O)cc(O)cc2OC1c1cc(O)c(O)c(O)c1 (centres unmarked)
result: 1.67

query: Field request: log10 of IC50 | item: CCCCC=CCCCCCCCC(=O)OC1Cc2c(O)cc(O)cc2OC1c1cc(O)c(O)c(O)c1 (centres unmarked)
result: 1.46

query: Find the recorded log10 of IC50 belonging to CCCCCC=CCC=CCC=CCCCCC(=O)OC1Cc2c(O)cc(O)cc2OC1c1cc(O)c(O)c(O)c1 (centres unmarked) and report it.
result: 1.40

* * *

Biological target: UniProtKB P31213
Sequence (P31213 1-254): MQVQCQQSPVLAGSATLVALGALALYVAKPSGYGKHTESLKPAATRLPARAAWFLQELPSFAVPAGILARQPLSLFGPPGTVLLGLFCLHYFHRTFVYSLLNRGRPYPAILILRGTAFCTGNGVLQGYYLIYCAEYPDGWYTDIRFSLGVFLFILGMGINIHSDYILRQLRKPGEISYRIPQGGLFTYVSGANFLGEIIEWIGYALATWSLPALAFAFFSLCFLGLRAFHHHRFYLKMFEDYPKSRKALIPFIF
Experiment: Cell free assay of 5α-reductase, microsomes of rat 1A cells expressing type 2 isoenzyme (HRED2);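 also: labeled testosterone and its product dihydrotestosterone measured in microsomal reaction extracts via thin layer chromatography plus radioanalytic scanning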
Format: biochemical
Parameters: expressed in transfected cells; host or cells: rat 1A cells infected with pMV7 retrovirus; microsomes
Details: cell free assay; Table 5 epigallocatechin derivatives; read-out: HRED2 IC50
For each record, write down the corresponding IC50.

query: Return reported IC50; argument: COc1cc(C(=O)OC2Cc3c(O)cc(O)cc3OC2c2cc(O)c(O)c(O)c2)cc(OC)c1OC (stereo not shown)
result: > 100 µM

query: # get_value(readout='IC50', item= CC(=O)OC1Cc2c(O)cc(O)cc2OC1c1cc(O)c(O)c(O)c1 (stereo not shown) )
result: > 100 µM

query: Which IC50 is listed for CCCCCCCCCCCCCCCCCC(=O)OC1Cc2c(O)cc(O)cc2OC1c1cc(O)c(O)c(O)c1 (stereo not shown) ?
result: > 100 µM

query: Which measured IC50 value corresponds to Cc1c(O)cc(C(=O)OC2Cc3c(O)cc(O)cc3OC2c2cc(O)c(O)c(O)c2)cc1O (stereo not shown) ?
result: 99 µM
